- testDetails: self-splicing fitness, log relative to wild type (ln ratio); higher = more splicing; Tetrahymena group I intron in knt gene, E. coli kanamycin selection, DiMSum; sequences stand for … in CUCUCU…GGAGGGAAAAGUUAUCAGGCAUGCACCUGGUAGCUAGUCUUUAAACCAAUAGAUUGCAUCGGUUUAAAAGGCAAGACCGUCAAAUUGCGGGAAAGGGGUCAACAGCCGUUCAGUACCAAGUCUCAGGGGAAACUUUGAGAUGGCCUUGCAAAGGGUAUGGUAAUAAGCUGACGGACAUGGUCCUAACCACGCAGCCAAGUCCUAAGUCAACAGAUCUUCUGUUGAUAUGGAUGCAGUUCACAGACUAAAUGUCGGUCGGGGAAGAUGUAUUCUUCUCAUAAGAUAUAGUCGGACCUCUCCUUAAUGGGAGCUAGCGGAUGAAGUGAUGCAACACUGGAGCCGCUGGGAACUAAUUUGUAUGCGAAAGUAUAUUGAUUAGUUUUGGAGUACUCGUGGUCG;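 further: selection with 25 µg/mL kanamycin versus none on LB agar overnight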
- protocolConditions: 37 °C
Short version: self-splicing fitness (ln) at least -2 is Condition met, less is Condition not met.

residueSequence	class
AGAGAGCAAUAUUACGUCUC	Condition not met
AGUCAGCAAUAUUACGUAAG	Condition met
AAUAAGCAAUAUUACGCAUA	Condition met
CACAAGCAAUAUUACGCGAG	Condition met
GCAUAGCAAUAUUACGGAAG	Condition not met
AACCAGCAAUAUUACGACGU	Condition met
CGAUAGCAAUAUUACGGGUU	Condition not met
CCGCAGCAAUAUUACGAACG	Condition met
CCAGAGCAAUAUUACGUAGC	Condition not met
GGGCAGCAAUAUUACGGACA	Condition met
CUUCAGCAAUAUUACGCUUA	Condition not met
AAGCAGCAAUAUUACGCACU	Condition met
UUUCAGCAAUAUUACGAGAC	Condition not met
CAACAGCAAUAUUACGCGCG	Condition met
GAGCAGCAAUAUUACGCAAU	Condition met
CGAUAGCAAUAUUACGUCUG	Condition met
CUUGAGCAAUAUUACGUGAA	Condition not met
CCGCAGCAAUAUUACGGUAG	Condition met
CGCAAGCAAUAUUACGCAUG	Condition not met
UGCUAGCAAUAUUACGGGAC	Condition met
GGCAAGCAAUAUUACGCCGU	Condition met
UCGAAGCAAUAUUACGUGCG	Condition met
GUCCAGCAAUAUUACGUUGG	Condition not met
CCUGAGCAAUAUUACGGGUG	Condition met
AGACAGCAAUAUUACGUACU	Condition met
UCUAAGCAAUAUUACGCGUU	Condition not met
AAACAGCAAUAUUACGCGUG	Condition met
CCGGAGCAAUAUUACGUAUC	Condition not met
AUAGAGCAAUAUUACGGCGU	Condition met
GUACAGCAAUAUUACGCGAU	Condition not met
AUCGAGCAAUAUUACGUCAC	Condition met
AGAUAGCAAUAUUACGUGGA	Condition not met
GAUCAGCAAUAUUACGUCGA	Condition met
GCCUAGCAAUAUUACGUGCU	Condition met
UUAAAGCAAUAUUACGUUCC	Condition met
AGCAAGCAAUAUUACGCUUA	Condition met
CAUUAGCAAUAUUACGCCUG	Condition met
UAGGAGCAAUAUUACGUCAA	Condition not met
CGCAAGCAAUAUUACGUUGG	Condition met
UACAAGCAAUAUUACGUUAG	Condition not met
AUUGAGCAAUAUUACGAGGC	Condition not met
AUAAAGCAAUAUUACGCAUG	Condition met
GAUGAGCAAUAUUACGGGUG	Condition not met
AGAAAGCAAUAUUACGCCGA	Condition met
ACCAAGCAAUAUUACGCUCC	Condition met
AUCGAGCAAUAUUACGCGCG	Condition met
GCGUAGCAAUAUUACGCGUC	Condition not met
CUUUAGCAAUAUUACGGUAG	Condition met
ACCGAGCAAUAUUACGAGUA	Condition not met
UGAGAGCAAUAUUACGCAUC	Condition met
GAGGAGCAAUAUUACGAAGG	Condition not met
GAAUAGCAAUAUUACGUCUU	Condition met
GAGUAGCAAUAUUACGGAAC	Condition met
ACACAGCAAUAUUACGGCCC	Condition met
UGAUAGCAAUAUUACGUGGG	Condition met
UAAUAGCAAUAUUACGGCAC	Condition met
UUGGAGCAAUAUUACGUGGA	Condition not met
AUGUAGCAAUAUUACGGAAC	Condition met
AAGCAGCAAUAUUACGACUG	Condition met
GAAAAGCAAUAUUACGACGC	Condition met
ACACAGCAAUAUUACGCAGA	Condition met
GGAUAGCAAUAUUACGGGCU	Condition met
GAUGAGCAAUAUUACGUUAU	Condition met
AACUAGCAAUAUUACGAGUU	Condition met
GCUGAGCAAUAUUACGUCCU	Condition met

====

- testDetails: self-splicing fitness, log relative to wild type (ln ratio); higher = more splicing; Tetrahymena group I intron in knt gene, E. coli kanamycin selection, DiMSum; sequences stand for … in CUCUCU…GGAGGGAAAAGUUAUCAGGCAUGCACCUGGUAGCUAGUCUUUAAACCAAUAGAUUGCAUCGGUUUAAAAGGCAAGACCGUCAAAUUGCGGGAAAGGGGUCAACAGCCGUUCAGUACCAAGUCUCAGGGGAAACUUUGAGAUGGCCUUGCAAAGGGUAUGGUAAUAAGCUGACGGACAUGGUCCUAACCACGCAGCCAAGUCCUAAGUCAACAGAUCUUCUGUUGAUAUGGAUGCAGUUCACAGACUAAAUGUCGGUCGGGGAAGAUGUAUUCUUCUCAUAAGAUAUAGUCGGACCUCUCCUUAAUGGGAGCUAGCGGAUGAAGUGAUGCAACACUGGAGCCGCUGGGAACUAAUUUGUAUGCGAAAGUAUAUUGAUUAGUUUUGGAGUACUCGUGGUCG
- protocolConditions: 37 °C
Category | rule: reported self-splicing fitness (ln) within range, see 1 (below -2), 2 (-2 to below -1), 3 (-1 or more)

residueSequence	class
CGUUAGCAAUAUUACGUGCC	2
CGACAGCAAUAUUACGGACC	3
GUCUAGCAAUAUUACGAACA	3
GAUAAGCAAUAUUACGUUUG	2
ACGAAGCAAUAUUACGGCUU	1
AACCAGCAAUAUUACGGUCG	3
AUUUAGCAAUAUUACGGAAA	2
GUCGAGCAAUAUUACGCAUG	1
GGCGAGCAAUAUUACGUCUC	2
UGAUAGCAAUAUUACGCAAA	3
UGCUAGCAAUAUUACGAGGA	2
GAUGAGCAAUAUUACGAUCG	1
CCAAAGCAAUAUUACGCGUC	1

====

- testDetails: self-splicing fitness, log relative to wild type (ln ratio); higher = more splicing; Tetrahymena group I intron in knt gene, E. coli kanamycin selection, DiMSum; sequences stand for … in CUCUCU…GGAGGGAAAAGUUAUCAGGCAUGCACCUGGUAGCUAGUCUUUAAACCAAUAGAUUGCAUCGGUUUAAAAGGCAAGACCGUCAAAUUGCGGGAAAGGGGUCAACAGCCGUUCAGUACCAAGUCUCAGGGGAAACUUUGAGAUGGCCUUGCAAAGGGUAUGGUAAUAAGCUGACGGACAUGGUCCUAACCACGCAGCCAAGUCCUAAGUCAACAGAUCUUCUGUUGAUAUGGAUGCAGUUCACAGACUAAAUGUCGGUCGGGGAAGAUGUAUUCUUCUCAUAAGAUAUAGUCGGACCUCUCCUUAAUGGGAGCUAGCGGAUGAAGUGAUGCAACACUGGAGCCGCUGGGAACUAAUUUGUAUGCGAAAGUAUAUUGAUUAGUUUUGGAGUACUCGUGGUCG
- protocolConditions: 30 °C
Assign class by self-splicing fitness (ln): not lower than -3 means YES; lower than -3 means NO.

residueSequence	class
AUAAAGCAAUAUUACGUAUA	YES
AUGAAGCAAUAUUACGCUUU	NO
CCGGAGCAAUAUUACGCGGC	NO
GUACAGCAAUAUUACGGGGU	NO
CACAAGCAAUAUUACGGGUC	NO
UCGAAGCAAUAUUACGAAUA	YES
UCAAAGCAAUAUUACGUAUA	NO
UCCAAGCAAUAUUACGAGAA	YES
CUCGAGCAAUAUUACGGUCA	YES
ACGUAGCAAUAUUACGUUAA	NO
UCUCAGCAAUAUUACGAUGC	NO
CAUCAGCAAUAUUACGAACU	NO
CGCUAGCAAUAUUACGACAG	YES
AACCAGCAAUAUUACGCGCG	YES
UCCUAGCAAUAUUACGGUCU	YES
CUCGAGCAAUAUUACGUCAA	NO

====

Recorded self-splicing fitness (ln) for the following sequences
- testDetails: self-splicing fitness, log relative to wild type (ln ratio); higher = more splicing; Tetrahymena group I intron in knt gene, E. coli kanamycin selection, DiMSum; sequences stand for … in CUCUCU…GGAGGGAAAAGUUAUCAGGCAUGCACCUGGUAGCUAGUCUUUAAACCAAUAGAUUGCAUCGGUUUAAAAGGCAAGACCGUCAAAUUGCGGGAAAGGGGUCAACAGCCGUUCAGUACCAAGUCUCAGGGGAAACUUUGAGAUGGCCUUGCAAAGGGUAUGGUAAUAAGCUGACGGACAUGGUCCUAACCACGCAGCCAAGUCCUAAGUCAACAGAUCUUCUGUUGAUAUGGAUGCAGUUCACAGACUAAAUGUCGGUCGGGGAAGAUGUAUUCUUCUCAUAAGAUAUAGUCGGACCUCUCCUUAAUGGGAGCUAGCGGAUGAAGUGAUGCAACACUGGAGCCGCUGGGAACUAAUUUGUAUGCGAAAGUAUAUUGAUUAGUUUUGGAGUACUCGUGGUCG
- protocolConditions: 37 °C
readoutKind: self-splicing fitness (ln)

residueSequence	recordedValue
GGUGAGCAAUAUUACGAAUU	-0.274
CCGAAGCAAUAUUACGUAUA	-2.51
AGAGAGCAAUAUUACGCAAC	-1.44
AGCUAGCAAUAUUACGGUCG	0.371
AUACAGCAAUAUUACGAAAC	-3.1
UACAAGCAAUAUUACGUUGA	-2.06
UUGGAGCAAUAUUACGUCCG	-1.27
UUUUAGCAAUAUUACGGUGC	-2.98
UAGCAGCAAUAUUACGUAUA	-0.924
UCCCAGCAAUAUUACGACGU	-0.16
AAUAAGCAAUAUUACGCUCC	-0.799
CGUUAGCAAUAUUACGGGCU	-1.46
UAGCAGCAAUAUUACGAAUC	-2.03
GGUCAGCAAUAUUACGCUUU	-0.0673
AUUCAGCAAUAUUACGUGAA	-0.398
CGAUAGCAAUAUUACGUUGA	-1.3
GAUCAGCAAUAUUACGCUCU	-0.735
GGAAAGCAAUAUUACGCCGG	-2.24
UAUAAGCAAUAUUACGGUAC	-2.23
UCCAAGCAAUAUUACGAUGU	-0.338
AACCAGCAAUAUUACGGGGU	-2.88
UAUGAGCAAUAUUACGUGAA	-1.35
CGCGAGCAAUAUUACGCAGG	-1.88
GUUCAGCAAUAUUACGUUGC	-1.7
CGCUAGCAAUAUUACGGUUA	-1.82
AUUAAGCAAUAUUACGCCCU	-0.149
GCAAAGCAAUAUUACGCUCG	-0.86
CCACAGCAAUAUUACGGUGG	-2.28
CUACAGCAAUAUUACGUGCG	-0.715
CGCUAGCAAUAUUACGUAUU	-1.9
CCAAAGCAAUAUUACGUACU	-2.76
CCAGAGCAAUAUUACGGCUG	-1
ACACAGCAAUAUUACGGCAA	-0.943
UGUGAGCAAUAUUACGCGGU	-0.807
CGCAAGCAAUAUUACGUUGU	-2.41
AUAGAGCAAUAUUACGCACA	-0.032
AACCAGCAAUAUUACGUAAA	-0.76
GGCAAGCAAUAUUACGCGGU	-1.37
CUAUAGCAAUAUUACGACGC	-2.14
AUCAAGCAAUAUUACGGACC	-1.22
GGAGAGCAAUAUUACGUUUA	-2.03
UAGAAGCAAUAUUACGAAGU	-1.17
CAGUAGCAAUAUUACGAAAU	-2.54
CCGAAGCAAUAUUACGGCCA	-2.3
UCAUAGCAAUAUUACGAGGU	-3.42
CCCUAGCAAUAUUACGCUGG	-2.89
CACGAGCAAUAUUACGGUCG	-0.457
GAAUAGCAAUAUUACGUGUA	-1.49
CGUAAGCAAUAUUACGUCAU	-2.38
UACUAGCAAUAUUACGAGCA	0.447
GUCAAGCAAUAUUACGGUGA	-2.22
CUCUAGCAAUAUUACGUGCC	-3.62
AGAAAGCAAUAUUACGCCCG	-0.0334
CAGCAGCAAUAUUACGCGGG	-2.31
UGGUAGCAAUAUUACGUCCU	0.713
UGGCAGCAAUAUUACGAGUA	-1.46
UGUGAGCAAUAUUACGAUGA	-2.21
GCAGAGCAAUAUUACGACAU	-2.06
CUUAAGCAAUAUUACGGGCA	-2.3
CUGAAGCAAUAUUACGUAGU	-3.22
UAACAGCAAUAUUACGUUGC	-2.84
CGAGAGCAAUAUUACGCAGU	-2.21
GGUCAGCAAUAUUACGGUUA	0.53
GUCUAGCAAUAUUACGUGUA	-0.516
GAGAAGCAAUAUUACGUCCA	0.335
AGCCAGCAAUAUUACGACGG	-1.35
UUGAAGCAAUAUUACGAUUC	-2.3
